biological target: PLA2 (pancreatic phospholipase A2) (Homo sapiens, UniProt P04054); test: PLA2 inhibition assay by HPLC with DOPC as substrate; assay type: biochemical; conditions: peptide 0.035 mg/ml
Sequence (P04054 23-148, species assumed): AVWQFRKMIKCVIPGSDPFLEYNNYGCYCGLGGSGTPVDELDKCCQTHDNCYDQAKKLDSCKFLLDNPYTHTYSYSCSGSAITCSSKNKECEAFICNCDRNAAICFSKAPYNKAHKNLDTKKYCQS
Where no end group is shown, it is not given here.
Hi, to clarify the labels: T covers Percentage of PLA2 inhibition from 10% upward, F covers anything below 10%.

Exercise: Could you please find out whether SVIKPPTD [Peptide P8a, SVIKPPTD] has Percentage of PLA2 inhibition that meets 10% or exceeds it?
Solution: T

Exercise: # bool: Percentage of PLA2 inhibition of EEDQPRPDHPPQRP [Peptide P14c, EEDQPRPDHPPQRP] >= 10%
Solution: T

Exercise: Check the entry EEEGGSVLSG [Peptide P10b, EEEGGSVLSG] : does Percentage of PLA2 inhibition equal or exceed 10%?
Solution: F

Exercise: Identify whether the reported Percentage of PLA2 inhibition of the following substance is 10% or greater: QGENEGEDKGAIVT [Peptide P14b, QGENEGEDKGAIVT]
Solution: F

Exercise: Identify whether the reported Percentage of PLA2 inhibition of the following substance is 10% or greater: SDNFEY [Peptide P6a, SDNFEY]
Solution: T

Exercise: Does QGENEEEDSGAIVTVK [Peptide P16f, QGENEEEDSGAIVTVK] have a reported Percentage of PLA2 inhibition of at least 10%?
Solution: T

###

target: PLA2 (pancreatic phospholipase A2) (Homo sapiens); experiment: PLA2 inhibition assay by HPLC with DOPC as substrate; format: biochemical; conditions: peptide 3.5 mg/ml
Where no end group is shown, it is not given here.
observable: Percentage of PLA2 inhibition (%)
Your answer should be a plain number; it is taken to be in %.

Exercise: Any idea what its Percentage of PLA2 inhibition is? The substance is QGENEGEDKGAIVT [Peptide P14b, QGENEGEDKGAIVT]
Solution: 28.8

Exercise: # get_value(readout='Percentage of PLA2 inhibition', item= EEEGGSVLSG [Peptide P10b, EEEGGSVLSG] )
Solution: 26.9

Exercise: Item under review: SDNFEY [Peptide P6a, SDNFEY] . Reported Percentage of PLA2 inhibition?
Solution: 31.9

Exercise: Name the recorded Percentage of PLA2 inhibition for SVIKPPTD [Peptide P8a, SVIKPPTD] .
Solution: 20.1

Exercise: May I ask what Percentage of PLA2 inhibition has been recorded for EEDQPRPDHPPQRP [Peptide P14c, EEDQPRPDHPPQRP] ?
Solution: 26.1

Exercise: Need Percentage of PLA2 inhibition of QGENEEEDSGAIVTVK [Peptide P16f, QGENEEEDSGAIVTVK] , thanks.
Solution: 22.5

###

assay: In vitro enzymatic digestion model of the digestive tract (pepsin, pancreatin, bile), HPLC; type: in vitro ADME; conditions: Intestinal phase 120 min.; read-out: Degradation (%)
Where no end group is shown, it is not given here.
observable: metabolised at 2 h (%)
Give the value, in units of %, as a plain number.

Exercise: Entry QGENEGEDKGAIVT [Peptide P14b, QGENEGEDKGAIVT] : reported metabolised at 2 h = ?
Solution: 100

Exercise: Query: metabolised at 2 h; subject: SDNFEY [Peptide P6a, SDNFEY]
Solution: 100

Exercise: Which value of metabolised at 2 h has been reported for EEDQPRPDHPPQRP [Peptide P14c, EEDQPRPDHPPQRP] in the records?
Solution: 95.5

Exercise: // query metabolised at 2 h value for entry SVIKPPTD [Peptide P8a, SVIKPPTD]
Solution: 100

Exercise: What value of metabolised at 2 h has been reported for the following substance? QGENEEEDSGAIVTVK [Peptide P16f, QGENEEEDSGAIVTVK]
Solution: 100
